B1: TMEM106C (parent)
chain: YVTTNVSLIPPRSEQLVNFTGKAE

Variants of: B1
METHOD DESCRIPTION: protein stability index of a GFP-peptide fusion (GPS, HEK-293T) (PSI 1-6); higher = more stable;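 note: lentivirally expressed fusions sorted by FACS into six bins by GFP to DsRed ratio, PSI derived from sequencing read proportions per bin multiplied by bin number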
RECORDED CONDITIONS: c terminus: a fixed tail appended
Below, each entry is listed with its recorded protein stability index.
METRIC NAME: protein stability index

    changes              metric_name  result_number
 0     E24Y  protein stability index            2.7
 1     Q15C  protein stability index           2.24
 2      Y1E  protein stability index           3.54
 3     P10F  protein stability index           2.74
 4      N5T  protein stability index           2.52
 5     P10N  protein stability index           2.78
 6     E14D  protein stability index           1.46
 7     F19K  protein stability index           2.25
 8     E14N  protein stability index            1.8
 9      T3P  protein stability index           3.42
10      T4R  protein stability index           2.23
11     N18C  protein stability index           1.95
12      V6E  protein stability index           2.36
13     Q15V  protein stability index           2.17
14      T4K  protein stability index           1.77
15     N18L  protein stability index           2.14
16      L8M  protein stability index            2.5
17     T20K  protein stability index           2.11
18     K22V  protein stability index           2.81
19     N18M  protein stability index           2.37
20     R12P  protein stability index           1.86
21      L8V  protein stability index           1.67
22      V2W  protein stability index           2.66
23     S13I  protein stability index           1.62
24      V2N  protein stability index           4.08
25     V17H  protein stability index            2.1
26      N5P  protein stability index           2.67
27      I9E  protein stability index           2.25
28      I9M  protein stability index           1.86
29     P11I  protein stability index            2.3
30     P11Q  protein stability index           2.12
31     V17R  protein stability index           1.41
32      V2T  protein stability index           3.48
33      T4V  protein stability index           1.51
34      L8G  protein stability index           2.39
35      L8W  protein stability index            2.1
36     T20F  protein stability index           2.31
37     K22T  protein stability index           2.14
38     K22P  protein stability index           1.76
39     S13F  protein stability index           2.56
40     V17C  protein stability index           2.19
41      T4S  protein stability index           1.86
42      I9S  protein stability index           1.71
43      I9T  protein stability index           2.43
44     G21Y  protein stability index           3.28
